The entries below come with measured pIC50 values attached.
- Tested on: 475296-252-R-J1-PDC spheroid viability
- test_details: Anticancer human tumor 475296-252-R-J1-PDC patient-derived rectal carcinoma cell line growth inhibition [PI3K]
- recorded_conditions: curve of first compound; second compound 0.0316 µM; spheroids with HUVEC and MSC
- Description: Combinatorial screen of targeted agents with the PI3K inhibitors inavolisib, alpelisib, duvelisib, and copanlisib in multi-cell type tumor spheroids A high-throughput screen of multi-cell type tumor spheroids was designed to identify active combinations of targeted small molecules and PI3K pathway inhibitors. […] Compounds. […] If the clinical Cmax for an agent had not been determined, the highest concentration tested was 10 microM. […]
pIC50: −log10 of the molar value.

compound	readout_name	obs_value
CC(C)n1nc(-c2ccc3oc(N)nc3c2)c2c(N)ncnc21 + CC(Nc1ccc2c(c1)OCCn1cc(N3C(=O)OCC3C(F)F)nc1-2)C(N)=O	pIC50	< 7.00

Data request, read-out pIC50, for C=CC(=O)N1CCN(c2nc(=O)n(-c3c(C)ccnc3C(C)C)c3nc(-c4c(O)cccc4F)c(F)cc23)C(C)C1 (configuration not stated) + COc1c(OCCCN2CCOCC2)ccc2c3n(c(=NC(=O)c4cnc(N)nc4)nc12)CCN3
< 5.00

Data request, read-out pIC50, for Cn1ncc(Cl)c1-c1cc(C(=O)NC(CN)Cc2cccc(F)c2)sc1Cl (configuration not stated) + COc1c(OCCCN2CCOCC2)ccc2c3n(c(=NC(=O)c4cnc(N)nc4)nc12)CCN3
5.68

Data request, read-out pIC50, for Cn1nccc1Nc1nccc(-c2ccn(C(CO)c3ccc(Cl)c(F)c3)c(=O)c2)n1 (configuration not stated) + COc1c(OCCCN2CCOCC2)ccc2c3n(c(=NC(=O)c4cnc(N)nc4)nc12)CCN3
5.56

Data request, read-out pIC50, for Cn1nccc1Nc1nccc(-c2ccn(C(CO)c3ccc(Cl)c(F)c3)c(=O)c2)n1 (configuration not stated) + CC(Nc1ccc2c(c1)OCCn1cc(N3C(=O)OCC3C(F)F)nc1-2)C(N)=O
< 5.00

Data request, read-out pIC50, for CC(C)n1nc(-c2ccc3oc(N)nc3c2)c2c(N)ncnc21 + Cc1nc(NC(=O)N2CCCC2C(N)=O)sc1-c1ccnc(C(C)(C)C(F)(F)F)c1
< 7.00

Data request, read-out pIC50, for CC(=O)c1c(C)c2cnc(Nc3ccc(N4CCNCC4)cn3)nc2n(C2CCCC2)c1=O + CC(Nc1ccc2c(c1)OCCn1cc(N3C(=O)OCC3C(F)F)nc1-2)C(N)=O
< 7.00

* * *

The entries below come with measured IC50 values attached.
- System: 475296-252-R-J1-PDC spheroid viability
- test_details: Anticancer human tumor 475296-252-R-J1-PDC cell line growth inhibition [PI3K];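 further: spheroids exposed to agents for seven days before readout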
- recorded_conditions: curve of compound; spheroids with HUVEC and MSC

Example entries begin here.
> print(dat)
                                   molecule  obs.value
1  C=CC(=O)N1CCN(c2nc(=O)n(-c3c(C)ccnc3C(C)C)c3nc(-c4c(O)cccc4F)c(F)cc23)C(C)C1 (centres undefined)    > 10 µM
2  Cn1ncc(Cl)c1-c1cc(C(=O)NC(CN)Cc2cccc(F)c2)sc1Cl (centres undefined)    > 10 µM
3  CCCS(=O)(=O)Nc1ccc(F)c(C(=O)c2c[nH]c3ncc(-c4ccc(Cl)cc4)cc23)c1F    > 10 µM
4  CC(=O)c1c(C)c2cnc(Nc3ccc(N4CCNCC4)cn3)nc2n(C2CCCC2)c1=O   > 0.1 µM
5  CC1(C)CCC(CN2CCN(c3ccc(C(=O)NS(=O)(=O)c4ccc(NCC5CCOCC5)c([N+](=O)[O-])c4)c(Oc4cnc5[nH]ccc5c4)c3)CC2)=C(c2ccc(Cl)cc2)C1    > 10 µM

Data request, read-out IC50, for CNC(=O)c1ccc(N2C(=S)N(c3ccc(C#N)c(C(F)(F)F)c3)C(=O)C2(C)C)cc1F
> 10 µM

Data request, read-out IC50, for CC(C)NCC(C(=O)N1CCN(c2ncnc3c2C(C)CC3O)CC1)c1ccc(Cl)cc1 (centres undefined)
> 10 µM

FYI, the data here is from PubChem BioAssay AID1963980.
